Where do these numbers come from? They come from patent US20260240878A1.

Biological target: PTP1B (Homo sapiens, UniProt P18031)
Sequence (P18031 whole entry): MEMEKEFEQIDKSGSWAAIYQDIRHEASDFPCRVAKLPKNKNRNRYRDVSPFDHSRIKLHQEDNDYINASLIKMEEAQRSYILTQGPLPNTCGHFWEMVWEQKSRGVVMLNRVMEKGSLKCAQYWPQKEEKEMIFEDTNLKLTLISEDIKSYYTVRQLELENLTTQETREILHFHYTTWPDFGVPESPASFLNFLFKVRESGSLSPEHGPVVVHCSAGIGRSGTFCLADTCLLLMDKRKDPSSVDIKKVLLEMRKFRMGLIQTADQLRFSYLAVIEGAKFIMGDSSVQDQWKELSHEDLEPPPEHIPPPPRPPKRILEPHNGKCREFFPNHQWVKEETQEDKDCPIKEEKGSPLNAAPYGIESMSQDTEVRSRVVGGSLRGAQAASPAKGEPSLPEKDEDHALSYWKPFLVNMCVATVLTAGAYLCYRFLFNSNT
Experiment: PTP activity assay with pNPP substrate (IC50, Ki, mode of inhibition)
Type: biochemical
Settings: pNPP 2 mM, pH 7.0, 25° C.; read-out: IC50, nM PTP1B
*1 amine or outer side, *2 acyl side, *3 side chain or, on linkers, in order; H or OH if unused. Where a SMILES comes first, the peptide text is derived from it. [ ]: non-standard residue; d: D form. The star is where a group is joined. NHBn(4-(4-Me-thiazol-5-yl)) = Cc1ncsc1-c1ccc(CN*)cc1; NHCH2(1,3-C6H4)CH2CO = O=C(Cc1cccc(CN[*:1])c1)[*:2]; F2Pmp = N[C@@H](Cc1ccc(C(F)(F)P(=O)(O)O)cc1)C(=O)O; Phenylacetyl(4-OH,3-OMe) = COc1cc(CC(=O)*)ccc1O; Benzoyl(3-Br,4-Me) = Cc1ccc(C(=O)*)cc1Br; Hyp = O=C(O)[C@@H]1C[C@@H](O)CN1; X3 = O=C(CCC1CCN([*:1])CC1)[*:2]; dHyp = O=C(O)[C@H]1C[C@H](O)CN1; dTle = CC(C)(C)[C@@H](N)C(=O)O; Tle = CC(C)(C)[C@H](N)C(=O)O; 12Ado = NCCCCCCCCCCCC(=O)O; 4Amb = NCc1ccc(C(=O)O)cc1; Ava = NCCCCC(=O)O
readout_kind: IC50 (nM)
Numbers only, in nM.

Some compounds with recorded IC50:
| compound | experimental_target | IC50 / nM |
| --- | --- | --- |
| COc1cc(CC(=O)N[C@@H](Cc2ccccc2)C(=O)N[C@@H](Cc2ccc(C(F)(F)P(=O)(O)O)cc2)C(=O)N[C@@H](CCCCNC(=O)c2ccc(C)c(Br)c2)C(=O)NCCCCC(=O)N[C@@H](C(=O)N2C[C@@H](O)C[C@@H]2C(=O)NCc2ccc(-c3scnc3C)cc2)C(C)(C)C)ccc1O [Compound 6] ({Phenylacetyl(4-OH,3-OMe)}-F[F2Pmp]K(Benzoyl(3-Br,4-Me))[Ava][dTle][dHyp]-{NHBn(4-(4-Me-thiazol-5-yl))}) | PTP1B (Homo sapiens, UniProt P18031) | 29.4 |
| COc1cc(CC(=O)N[C@@H](Cc2ccccc2)C(=O)N[C@@H](Cc2ccc(C(F)(F)P(=O)(O)O)cc2)C(=O)N[C@@H](CCCCNC(=O)c2ccc(C)c(Br)c2)C(=O)NCc2cccc(CC(=O)N[C@H](C(=O)N3C[C@H](O)C[C@H]3C(=O)NCc3ccc(-c4scnc4C)cc3)C(C)(C)C)c2)ccc1O [Compound 48] ({Phenylacetyl(4-OH,3-OMe)}-F[F2Pmp]K(Benzoyl(3-Br,4-Me))[NHCH2(1,3-C6H4)CH2CO][Tle][Hyp]-{NHBn(4-(4-Me-thiazol-5-yl))}) | PTP1B (Homo sapiens, UniProt P18031) | 16.7 |
| COc1cc(CC(=O)N[C@@H](Cc2ccccc2)C(=O)N[C@@H](Cc2ccc(C(F)(F)P(=O)(O)O)cc2)C(=O)N[C@@H](CCCCNC(=O)c2ccc(C)c(Br)c2)C(=O)NCCCCCCCCCCCC(=O)N[C@H](C(=O)N2C[C@H](O)C[C@H]2C(=O)NCc2ccc(-c3scnc3C)cc2)C(C)(C)C)ccc1O [Compound 18] ({Phenylacetyl(4-OH,3-OMe)}-F[F2Pmp]K(Benzoyl(3-Br,4-Me))[12Ado][Tle][Hyp]-{NHBn(4-(4-Me-thiazol-5-yl))}) | PTP1B (Homo sapiens, UniProt P18031) | 22.3 |

Please state IC50 for every compound in the list that follows.
1. COc1cc(CC(=O)N[C@@H](Cc2ccccc2)C(=O)N[C@@H](Cc2ccc(C(F)(F)P(=O)(O)O)cc2)C(=O)N[C@@H](CCCCNC(=O)c2ccc(C)c(Br)c2)C(=O)NCc2ccc(C(=O)N[C@H](C(=O)N3C[C@H](O)C[C@H]3C(=O)NCc3ccc(-c4scnc4C)cc3)C(C)(C)C)cc2)ccc1O [Compound 54] ({Phenylacetyl(4-OH,3-OMe)}-F[F2Pmp]K(Benzoyl(3-Br,4-Me))[4Amb][Tle][Hyp]-{NHBn(4-(4-Me-thiazol-5-yl))})
2. COc1cc(CC(=O)N[C@@H](Cc2ccccc2)C(=O)N[C@@H](Cc2ccc(C(F)(F)P(=O)(O)O)cc2)C(=O)N[C@@H](CCCCNC(=O)c2ccc(C)c(Br)c2)C(=O)N2CCC(CCC(=O)N[C@H](C(=O)N3C[C@H](O)C[C@H]3C(=O)NCc3ccc(-c4scnc4C)cc3)C(C)(C)C)CC2)ccc1O [Compound 58] ({Phenylacetyl(4-OH,3-OMe)}-F[F2Pmp]K(Benzoyl(3-Br,4-Me))[X3][Tle][Hyp]-{NHBn(4-(4-Me-thiazol-5-yl))})

1: 51.2; 2: 8.9
